- Tested on: 786-0
- assay details: NCI tumour cell line growth inhibition, 48 h
Active and inactive are the calls of the source. Rule as the data show it: active = GI50 up to about 1.1 µM and inactive = higher.
The reply should be one of these categories: TRUE = active, FALSE = inactive

Known results for compounds:
compound	class name
O=C1CCC2(c3ccccc3)Nc3ncccc3N12 (centres undefined)	FALSE
CCN(CC)CC(=O)N1CCc2c([nH]c3ccccc23)C1c1cccnc1 (centres undefined)	FALSE
O=C(c1ccccc1)N(CCCCNC(=O)C(F)(F)F)CCCNC(=O)C(F)(F)F	FALSE
COC1=CC(=O)c2nc3ccccc3c3ccnc1c23	FALSE

Per the records of this test, what outcome belongs to C=C(C)[C@@]12C[C@H](OC(=O)[C@H](O)[C@@H](NC(=O)c3ccccc3)c3ccccc3)C(C)=C1[C@@H](OC(C)=O)C(=O)[C@@]1(C)C([C@@H]2OC(=O)c2cc(F)cc(F)c2)C2(OC(C)=O)CO[C@@H]2C[C@@H]1O (some centres undefined) ?
TRUE

---

- Tested on: EKVX
- assay details: NCI tumour cell line growth inhibition, 48 h
The source made the active and inactive calls. No stated cut-off is given here; in the data, active = GI50 up to about 1.1 µM and inactive = higher.
Each record here notes measured GI50.

Illustrative cases are given below, each with its answer.
> print(dat)
                                   molecule  recorded.metric           meas.value
1  COc1ccc(/C=C2\N=C(N3CCCC(CO)C3)NC2=O)cc1 (stereo not given)             GI50  > 100 µM (inactive)
2  COc1ccc(S(=O)(=O)N[C@H](C(=O)O)c2ccccc2)cc1             GI50  > 100 µM (inactive)
3  CCOC(=O)/C=C(\C(=O)OCC)n1ccc(=O)[nH]c1=O             GI50     16 µM (inactive)

Please report the recorded GI50 for "O=c1[nH][nH]c(=O)n1Cc1ccccc1Cn1c(=O)[nH][nH]c1=O" .
> 100 µM (inactive)

Same read-out for "CN1CCN(CCCCN2c3ccccc3Sc3cc(N=[N+]=[N-])ccc32)CC1" ?
5.69 µM (inactive)

Same for CCCCS(=O)(=O)CCC(N)P(=O)(O)O (stereo not given)
> 100 µM (inactive)

---

Reported GI50 values are given for each entry in this list.
- System: DU-145
- assay details: NCI tumour cell line growth inhibition, 48 h
Calls of active or inactive are those of the source. No stated cut-off is given here; in the data, active = GI50 up to about 1.1 µM and inactive = higher.

Sample records with GI50:
compound	recorded metric	meas value
COC(=O)Cc1c(C2C(CC(=O)OC)c3ccccc3N2C2OC(CO)C(O)C(O)C2O)[nH]c2ccccc12 (stereo unspecified)	GI50	> 100 µM (inactive)
CCOc1cc(C=O)c2c(ccc3ccc(OC)c(OC)c32)c1OC	GI50	> 100 µM (inactive)
O=C(c1ccccc1)N(CCCCNC(=O)C(F)(F)F)CCCNC(=O)C(F)(F)F	GI50	> 100 µM (inactive)

Tell me the measured GI50 of "NC(=O)OCc1c(-c2ccccc2)nn(-c2ccccc2)c1COC(N)=O" , please.
> 100 µM (inactive)

// next record CC(C)C(Br)CCC1=CCC(Br)(Br)C1 (stereo unspecified)
18.4 µM (inactive)

Please answer likewise for "Nc1c(C(=O)c2ccccc2)[nH]c(NCc2ccccc2)c1C(=S)Nc1ccccc1"
> 100 µM (inactive)

Entry to check: "COc1cc(-c2nc(SC)nc3c2CCc2ccccc2-3)cc(OC)c1OC"
79.8 µM (inactive)

Follow-up item: "Cc1ccc(S(=O)(=O)N/N=C/C2(c3ccccc3)c3ccccc3-c3ccccc32)cc1"
12.1 µM (inactive)

Repeat for the following compound: "O=C(C#CP(=O)(O)c1ccccc1)c1ccccc1"
> 100 µM (inactive)

Another: "CC(=O)n1nc(-c2nc3ccccc3nc2Cl)cc1Cl"
20.6 µM (inactive)

"CCC/C(=N\NC(=S)N1CC2CCC(CC2)C1)c1ccccn1" , same question.
1.49 µM (inactive)

Try this compound too: "O=c1[nH]c2ccc(O)cc2o1"
> 100 µM (inactive)

---

- System: DU-145
- assay details: NCI tumour cell line growth inhibition, 48 h
Active and inactive are the calls of the source. No stated cut-off is given here; in the data, active = GI50 up to about 1.1 µM and inactive = higher.
Use one of these outcomes when replying: True (active), False (inactive)

compound	class name
N#Cc1nn(C(N)=O)c(N)c1C#N	False

Status in this test for "O=C(NC(Nc1ccc(F)cc1)(C(F)(F)F)C(F)(F)F)C(C(F)(F)F)C(F)(F)F" ?
False

Again, but for COC(=O)C1(C(=O)OC)N=C(C)OC1c1ccoc1 (stereo not drawn)
False

Same question, "O=C1c2cc(-c3ccccc3)cnc2S(=O)(=O)N1c1ccc(Br)cc1" this time
False

Item: "CC(C)NCCCNc1c2ccccc2nc2cccc([N+](=O)[O-])c12"
True

Please do the same for "CCN(CC)c1ccc(/C=C(\C#N)c2nc(N)nc(N3N=C(C)CC3(C)C)n2)cc1" as well.
False

Please give the result for COC12C=CC(CC1)C1C(=O)c3c(C)c(C)n(C)c3C(=O)C12 (stereo not drawn) too.
False

And then O=C1O[C@H]2[C@@H]3OC(=O)c4cc(O)c(O)c(O)c4-c4c(cc(O)c(O)c4O)C(=O)OC[C@H]2O[C@@H](OC(=O)c2cc(O)c(O)c(O)c2)[C@@H]3OC(=O)c2cc(O)c(O)c3c2[C@@H]2C1=CC(=O)C(O)(O)C2(O)O3 (stereo partly drawn) , what is it?
False

---

- System: Malme-3M
- assay details: NCI tumour cell line growth inhibition, 48 h
The source made the active and inactive calls. Cut-off read from the data, not from the text of the source: active = GI50 up to about 1.1 µM and inactive = higher.
recorded metric: GI50

> print(dat)
                                   compound          meas.value
1  CCN(CC)CC(O)CNc1ccc(NCC(O)CCl)c2c1C(=O)c1ccccc1C2=O (stereo not given)  13.4 µM (inactive)
2  Oc1ccc(O)c(Sc2nnc(CCCCCCCCc3nnc(Sc4cc(O)ccc4O)o3)o2)c1  57.3 µM (inactive)
3                Sc1nnc(Cc2ccc(Cl)cc2)[nH]1  29.1 µM (inactive)

GI50 for "N#Cc1c(/C=C/c2ccccc2)c2c([nH]c1=S)CCCCC2" ?
> 100 µM (inactive)

Another compound: CCCCCCCCCCCCCCCCCCNc1nc(=O)n(C2CC(O)C(COP(=O)(O)OCC3OC(n4ccc(N)nc4=O)C(O)C3O)O2)cc1F (stereo not given)
24.5 µM (inactive)

---

Form field: GI50 (one value per entry).
- Tested on: MDA-MB-435
- assay details: NCI tumour cell line growth inhibition, 48 h
The source made the active and inactive calls. Rule as the data show it: active = GI50 up to about 1.1 µM and inactive = higher.

Tell me the measured GI50 of COc1ccc(C2NC3=C(CCCC3)C3(C#N)C(=O)N=C(N)C23C#N)cc1 (stereo unspecified) , please.
> 100 µM (inactive)

// next record "COc1cc(-c2nc(SC)nc3c2CCc2ccccc2-3)cc(OC)c1OC"
95.1 µM (inactive)

Now consider "N#Cc1nc2ccccc2nc1N1CCN(c2ccc([N+](=O)[O-])cc2)CC1" and answer again.
> 100 µM (inactive)

// next record "NNC(=O)CC(=O)Nc1cccc(Cl)c1"
> 100 µM (inactive)

Would you mind doing "O=C(CSc1nc2ccc(I)cc2c(=O)n1Cc1ccccc1)N/N=C/c1ccccc1" as well?
> 100 µM (inactive)

Next entry: "O=S(=O)(O)CCCc1cccc2ccccc12"
> 100 µM (inactive)

---

- System: SK-MEL-28
- assay details: NCI tumour cell line growth inhibition, 48 h
Active and inactive are the calls of the source. Rule as the data show it: active = GI50 up to about 1.1 µM and inactive = higher.
Mark one answer only. Choices: active, inactive

Study these solved cases before continuing.
molecule	class name
CN/N=C(/c1nc2ccc([N+](=O)[O-])cc2nc1O)C(O)c1ccc(C(O)/C(=N\NC)c2nc3ccc([N+](=O)[O-])cc3nc2O)cc1 (centres undefined)	inactive
CCC1=C(C)/C(=C/c2[nH]c(CBr)c(CC)c2C)N=C1CBr	inactive
C(=N\c1cnc2ccccc2c1)/c1ccc2ccccc2n1	inactive
CCOc1cc(C=O)c2c(ccc3ccc(OC)c(OC)c32)c1OC	inactive
COc1ccc(C(OCC2OC(n3ccc(Oc4c(F)c(F)c(F)c(F)c4F)nc3=O)CC2OP(OCCC#N)N(C(C)C)C(C)C)(c2ccccc2)c2ccc(OC)cc2)cc1 (centres undefined)	inactive

Fill in: this test's call for "O=c1c2c(-c3ccccc3)c3ccccc3nc2cnn1-c1ccccc1" is ___
inactive

Continue with "COC(=O)[C@](NC(=O)OCc1ccccc1)([C@@H](C)Sc1ccc(C)cc1)C(F)(F)F"
inactive

// repeat for CC1=NN(c2ccccc2)C2(C1)C(Cl)C(=O)N2c1nc2ccccc2s1 (centres undefined) and report
inactive

# iterate: "O=C(c1ccccc1)c1nc2ccc(Cl)cc2cc1C(Br)Br"
active

---

Some compounds, each annotated with its measured GI50.
- System: UACC-62
- assay details: NCI tumour cell line growth inhibition, 48 h
The source made the active and inactive calls. Rule as the data show it: active = GI50 up to about 1.1 µM and inactive = higher. Square brackets hold non-standard residues; d marks the D form. Peptide text beside a SMILES is read from it.

Completed entries (count: 5):
compound	meas value
CC1(C)CC[C@]2(C(=O)O)CC[C@]3(C)C(=CC[C@@H]4[C@@]5(C)CC[C@H](OC6OC(CO)C(O)C(O)C6OC6OC(CO)C(O)C(O)C6O)C(C)(C)[C@@H]5CC[C@]43C)[C@@H]2C1 (some centres not stated)	19.3 µM (inactive)
COc1ccc(NC(=O)C/C(C)=N\N=C(N)N)c([N+](=O)[O-])c1	> 100 µM (inactive)
O=S(=O)(O)CCCc1cccc2ccccc12	> 100 µM (inactive)
CC(C)C[C@H](NC(=O)[C@H](CC(C)C)NC(=O)[C@@H](Cc1c[nH]c2ccccc12)NC(=O)[C@H](Cc1ccccc1)NC(=O)[C@@H](Cc1c[nH]c2ccccc12)NC(=O)[C@H](CCC(N)=O)NC(=O)[C@@H](CCC(N)=O)NC(=O)[C@@H]1CCCN1C(=O)[C@@H](CCCCN)NC(=O)[C@H]1CCCN1C(=O)[C@H](N)CCCN=C(N)N)C(N)=O (H-[dR][dP][dK]P[dQ]Q[dW]F[dW]LL-NH2)	> 100 µM (inactive)
C(CCc1nnc2c(n1)CCCC2)Cc1nnc2c(n1)CCCC2	> 100 µM (inactive)

Provide value of GI50 for this record tested with UACC-62: "O=C(/C=C/c1ccccc1F)c1ccc([N+](=O)[O-])cc1"
22.9 µM (inactive)

Continue with "O=C(CCN1CCOCC1)C(=Cc1ccccc1)C(=O)CCN1CCOCC1"
2.31 µM (inactive)

Where do the numbers come from? From ChEMBL document CHEMBL1201862.
